As shown below, each of these compounds has a reported HC50 at 1 h value.
PROTOCOL: Hemolytic activity in human RBC after 1 hr
Assay type: ADME, cell-based, Erythrocyte
ASSAY_CONDITIONS: red blood cells (RBC)
MEASURED_QUANTITY: HC50 at 1 h

SMILES_REPRESENTATION: CCCCCCCCCCCCCCCC(=O)N(CC(N)=O)C[C@H](CCCCN)NC(=O)CN1C[C@H](Cc2ccccc2)NC(=O)CN(C(=O)CCCN)C[C@H](Cc2ccccc2)NC(=O)CN(C(=O)CCCN)C[C@H](Cc2ccccc2)NC(=O)CN(C(=O)CCc2ccccc2)C[C@H](CCCCN)NC(=O)CCC1=O
VALUE_REPORTED: 129 µM
--
SMILES_REPRESENTATION: CCCCCCCCCCCCCCCC(=O)N(CC(N)=O)C[C@H](CCCCN)NC(=O)CN1C[C@H](Cc2ccccc2)NC(=O)CN(C(=O)CCc2ccccc2)C[C@H](CCCCN)NC(=O)CN(C(=O)CCCN)C[C@H](Cc2ccccc2)NC(=O)CN(C(=O)CCCN)C[C@H](Cc2ccccc2)NC(=O)CN(C(=O)CCc2ccccc2)C[C@H](CCCCN)NC(=O)CCC1=O
VALUE_REPORTED: 82 µM
